Reported pA2 values are given for each entry in this list.
molecular target: Adrenergic receptor alpha-1 (Rattus norvegicus, UniProt P15823+P23944+P43140); assay: In vitro antagonistic activity tested against the contraction induced by phenylephrine through Alpha-1 adrenergic receptor in rat thoracic aortic strips; type: functional
Enter a number only.

The examples below pair each entry with its known result.
1) O=C(c1ccc(F)cc1)C1CCN(CCn2nc3n(c2=O)CCOC3)CC1 ... 6.3
2) Cc1nc2sccn2c(=O)c1CCN1CCC(=C(c2ccc(F)cc2)c2ccc(F)cc2)CC1 [RITANSERIN] ... 7.5
3) O=c1n(CCN2CCC(=C(c3ccc(F)cc3)c3ccc(F)cc3)CC2)nc2n1CCCO2 ... 7.8
4) O=C(c1ccc(F)cc1)C1CCN(CCn2nc3n(c2=O)CCC3)CC1 ... 6.4
5) O=C(c1ccc(F)cc1)C1CCN(CCn2c(=O)nc3n(c2=O)CCCCC3)CC1 ... 6.9
6) O=c1n(CCN2CCC(=C(c3ccccc3)c3ccc(F)cc3)CC2)nc2n1CCCCC2 ... 6.4
7) O=C(c1ccc(F)cc1)C1CCN(CCn2c(=O)[nH]c3ccccc3c2=O)CC1 [KETANSERIN] ... 7.8

Now let's try a different one.
IN: Look up pA2 with Adrenergic receptor alpha-1 (Rattus norvegicus, UniProt P15823+P23944+P43140) for this compound: O=c1n(CCN2CCC(=C(c3ccc(F)cc3)c3ccc(F)cc3)CC2)nc2n1CCOC2
OUT: 6.6

* * *

target: Adrenergic receptor alpha-1 (Rattus norvegicus) (UniProt P15823+P23944+P43140); assay: In vivo inhibitory activity in rats against elevation of blood pressure caused by phenylephrine (30 ug/kg, iv) through Alpha-1 adrenergic receptor, after 1 hr oral administration at dose of 10 mg/kg; format: functional, organism-based; parameters: dose 10 mg/kg
Threshold rule: inhibition greater than or equal to 20% is MET; below that, NOT MET.

1) O=C(c1ccc(F)cc1)C1CCN(CCn2nc3n(c2=O)CCCC3)CC1 ... MET
2) O=C(c1ccc(F)cc1)C1CCN(CCn2nc3n(c2=O)CCC3)CC1 ... MET
3) O=C(c1ccc(F)cc1)C1CCN(CCn2c(=O)nc3sccn3c2=O)CC1 ... MET
4) O=C(c1ccc(F)cc1)C1(c2ccc(F)cc2)CCN(CCn2nc3n(c2=O)CCCC3)CC1 ... NOT MET
5) O=C(c1ccc(F)cc1)C1CCN(CCn2nc3n(c2=O)CCCC3)CC1c1ccc(F)cc1 (stereo not given) ... NOT MET

IN: Is inhibition for O=C(c1ccc(F)cc1)C1CCN(CCn2c(=O)nc3n(c2=O)CCCC3)CC1 at or above 20%?
OUT: MET

IN: Is inhibition for O=C(c1ccc(Cl)cc1)C1CCN(CCn2nc3n(c2=O)CCCC3)CC1 at or above 20%?
OUT: NOT MET

IN: Is inhibition for O=c1n(CCN2CCC(=C(c3ccc(F)cc3)c3ccc(F)cc3)CC2)nc2n1CCCO2 at or above 20%?
OUT: NOT MET

* * *

target: Adrenergic receptor alpha-1 (Rattus norvegicus, UniProt P15823+P23944+P43140); assay: In vitro antagonistic activity against the contraction induced by phenylephrine through alpha-1 receptor in rat thoracic aortic strips; type: functional
Reported pA2 values are given for each entry in this list.
Enter a number only.

The examples below pair each entry with its known result.
1) COc1ccc(C(=C2CCN(CCn3nc4n(c3=O)CCCC4)CC2)c2ccc(OC)cc2)cc1 ... 7.2
2) O=c1nc2n(c(=O)n1CCN1CCC(=C(c3ccc(F)cc3)c3ccc(F)cc3)CC1)CCC2 ... 6.8
3) O=c1n(CCN2CCC(=C(c3ccc(F)cc3)c3ccc(F)cc3)CC2)nc2n1CCCCC2 ... 7
4) O=c1n(CCN2CCC(=C(c3ccc(F)cc3)c3ccc(F)cc3)CC2)nc2n1CCCC2 ... 7

IN: Look up pA2 with Adrenergic receptor alpha-1 (Rattus norvegicus, UniProt P15823+P23944+P43140) for this compound: O=c1n(CCN2CCC(=C(c3ccc(F)cc3)c3ccc(F)cc3)CC2)nc2n1CCC2
OUT: 6.9

IN: Look up pA2 with Adrenergic receptor alpha-1 (Rattus norvegicus, UniProt P15823+P23944+P43140) for this compound: O=c1nc2n(c(=O)n1CCN1CCC(=C(c3ccc(F)cc3)c3ccc(F)cc3)CC1)CCCC2
OUT: 6.8
